Experiment: GST conjugation activity with 1,2-epoxy-3-(p-nitrophenoxy)propane (HPLC)
Format: biochemical
Details: 0.4 mM electrophilic substrate, 4 mM glutathione, 0.1 M MOPS pH 7.0, corrected for uncatalyzed reaction
Method: The GST enzymes, expressed and purified as described in Example 5 were screened for their ability to metabolize a variety of substrates. […] For each enzyme, the conjugation reaction with each electrophilic substrate was performed by incubating 0.3 to 30 μg enzyme in 0.1 M MOPS (pH 7.0) containing 0.4 mM of the electrophilic substrate. […] Quantitation of metabolites were based on an assumption that the extinction coefficient of the conjugate was identical to that of the electrophilic substrate. […]
VALUE KIND: Activity of soybean GST enzyme, 1,2-epoxy-3-(p-nitrophenoxy)propane (nmol/min/mg)
Give your result in nmol/min/mg as a bare value.

Prompt line: Field request: Activity of soybean GST enzyme, 1,2-epoxy-3-(p-nitrophenoxy)propane | item: GST-A: soybean type III GST encoded by cDNA insert in clone GSTa (protein) MSDEVVLLDFWPSPFGMRVRIALAEKGIKYEYKEEDLRNKSPLLLQMNPVHKKIPVLIHNGKPICESLIAVQYIEEVWNDRNPLLPSDPYQRAQTRFWADYVDKKIYDLGRKIWTSKGEEKEAAKKEFIEALKLLEEQLGDKTYFGGDNLGFVDIALVPFYTWFKAYETFGTLNIEECPKFIAWAKRCLQKESVAKSLPDQQKVYEFIMDLRKKLGIE
Response line: 22

Data origin: patent US6168954A
